- run_description: in vivo
- Design: species or system SD rats
- experimental_context: male, SD, rat, iv, 1.4 mg/kg, Liver-plasma concentration ratio of 113
observed_property: Kp at 0.25 h

compound="CN1CCN(C(=O)C2C(C(=O)OCC(Cl)(Cl)Cl)[C@H]3CC[C@@H]2O3)CC1 (stereo partly shown)" measured_number=0.321

----------
- run_description: Pharmacokinetic study of 157 (and metabolite endothal) in SD rats, iv and po; plasma, liver, brain
- Assay type: in vivo
- experimental_context: female, SD, rat, in vivo, iv, 1.5 mg/kg, iv 1.5 mg/kg, 1 hr, Rat 2; read-out: 157 liver concentration
observed_property: concentration at 1 h (ng/g)

compound="CCCCCCCOC(=O)C1C2CCC(O2)C1C(=O)N1CCN(C)CC1 (stereo not shown)" observed_property="concentration at 1 h" measured_number=17.6
